target: Bromodomain-containing protein 4 (Homo sapiens, UniProt O60885); assay: Inhibition of BRD4 bromodomain1 in human MV4-11 cells
pEC50: −log10 of the molar value.
RECORDED_METRIC: pEC50

COMPOUND: Cc1noc(C)c1-c1ccc2c(c1)C(c1ccsc1)(N1CCC[C@H](N)C1)C(=O)N2 (stereo partly specified)
VALUE_OBSERVED: 7.47

====

Below: a set of entries, each annotated with reported pIC50.
biological target: Bromodomain-containing protein 4 (Homo sapiens); assay: Displacement of biotinylated tetra-acetylated histone H4 from his-tagged BRD4 bromodomain1 (unknown origin) incubated for 30 mins by TR-FRET assay
pIC50: −log10 of the molar value.

COMPOUND_SMILES: O=C1Nc2ccc(NS(=O)(=O)C3CCCCC3)cc2C12CCC2
ASSAYED_TARGET: Bromodomain-containing protein 4 (Homo sapiens)
pIC50: > 6.82

COMPOUND_SMILES: COc1cc2c(cc1-c1c(C)noc1C)ncc1nc(C(F)(F)c3ccccn3)n(CC3CCOCC3)c12
ASSAYED_TARGET: Bromodomain-containing protein 4 (Homo sapiens)
pIC50: > 6.70

Provenance of the data: ChEMBL document CHEMBL3785033
